biological target: Plasmodium falciparum dUTPase (Plasmodium falciparum, UniProt Q8II92); construct: made in house; host or cells: E. coli BL21 (DE3); test: Inhibition of Plasmodium falciparum dUTPase (malaria enzyme assay); type: biochemical
Sequence (Q8II92 1-173): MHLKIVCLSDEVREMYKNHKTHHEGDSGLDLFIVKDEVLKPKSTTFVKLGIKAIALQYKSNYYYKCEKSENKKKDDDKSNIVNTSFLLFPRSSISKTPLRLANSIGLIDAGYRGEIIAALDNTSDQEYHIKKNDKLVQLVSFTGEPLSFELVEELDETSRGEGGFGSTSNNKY
pKi: −log10 of the molar value.
MEASUREMENT_LABEL: pKi

| SUBSTANCE_SMILES | MEASUREMENT_LABEL | REPORTED |
| --- | --- | --- |
| O=c1ccn(CCCCOC(c2ccccc2)(c2ccccc2)c2ccccc2)c(=O)[nH]1 | pKi | 5.79 |
| O=c1ccn(CCCCO[Si](c2ccccc2)(c2ccccc2)c2ccccc2)c(=O)[nH]1 | pKi | 5.77 |
| O=c1ccn(COCCOC(c2ccccc2)(c2ccccc2)c2ccccc2)c(=O)[nH]1 | pKi | 6.17 |

* * *

Biological target: Human recombinant dUTPase (Homo sapiens, UniProt P33316)
Construct: made in house; host or cells: E. coli BL21 (DE3)
Sequence (P33316 112-252 limits assumed): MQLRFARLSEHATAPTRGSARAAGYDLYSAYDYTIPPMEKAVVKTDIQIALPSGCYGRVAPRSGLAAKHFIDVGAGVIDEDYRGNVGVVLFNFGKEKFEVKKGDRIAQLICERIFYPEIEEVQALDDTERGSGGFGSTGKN
Assay: Human dUTPase assay
Type: biochemical
Conditions: human enzyme versus Plasmodium falciparum enzyme
Overview of reported SI (selectivity over the human enzyme) across a group of molecules:
MEASUREMENT_LABEL: SI (selectivity over the human enzyme)

| SUBSTANCE_SMILES | MEASUREMENT_LABEL | BOUND_OPERATOR | REPORTED |
| --- | --- | --- | --- |
| O=c1ccn(CCCCO[Si](c2ccccc2)(c2ccccc2)c2ccccc2)c(=O)[nH]1 | SI (selectivity over the human enzyme) | = | 226 |
| O=c1ccn(CCCCNC(c2ccccc2)(c2ccccc2)c2ccccc2)c(=O)[nH]1 | SI (selectivity over the human enzyme) | = | 1111 |
| O=c1ccn(CCCCCNC(c2ccccc2)(c2ccccc2)c2ccccc2)c(=O)[nH]1 | SI (selectivity over the human enzyme) | > | 233 |
| O=c1ccn(CCCCOC(c2ccccc2)(c2ccccc2)c2ccccc2)c(=O)[nH]1 | SI (selectivity over the human enzyme) | = | 617 |
| O=c1ccn(COCCOC(c2ccccc2)(c2ccccc2)c2ccccc2)c(=O)[nH]1 | SI (selectivity over the human enzyme) | = | 25.3 |
